# measurement_protocol: Plasma protein binding
# Assay type: in vitro ADME
# condition_details: human, plasma
value_type: fraction unbound
One number for each entry.

INPUT: # fraction unbound lookup, item O=C(Nc1ccc(C[C@@H]2CC[C@H]([C@H](O)c3ccccc3)N2)cc1)[C@@H]1CCc2nccc(=O)n21 [Vibegron]
OUTPUT: 0.49
